biological target: trypsin (UniProt P00760); assay: SPR; details: six carboxy-dT (ester or amide, polymerizable), throughout; embedded in imprinted polymer nanoparticle; SPR: PBST (10 mM phosphate buffered saline, pH 7.4, 0.01% Tween 20), 25 °C; nanoparticles immobilized on carboxymethyl dextran Au chips, protein 4-64 nM; n = 3
Sequence (P00760 24-246): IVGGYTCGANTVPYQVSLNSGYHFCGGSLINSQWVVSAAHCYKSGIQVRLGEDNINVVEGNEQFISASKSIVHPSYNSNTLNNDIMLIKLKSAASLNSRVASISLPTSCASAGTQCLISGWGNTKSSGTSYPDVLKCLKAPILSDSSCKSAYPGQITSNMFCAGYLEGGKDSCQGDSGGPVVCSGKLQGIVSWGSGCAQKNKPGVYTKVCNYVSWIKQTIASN
MEASURED METRIC: pKd
# pKd = -log10(concentration in molar units)

[ask] // query pKd value for entry ATCTACGAATTCATCAGGGCTAAAGAGTGCAGAGTTACTTAG [AptaMIP-1 oligo]
[reply] 5.33

---

molecular target: trypsin (UniProt P00760); test: SPR; conditions: one central carboxy-dT; embedded in imprinted polymer nanoparticle; SPR: PBST (10 mM phosphate buffered saline, pH 7.4, 0.01% Tween 20), 25 °C; nanoparticles immobilized on carboxymethyl dextran Au chips, protein 4-64 nM; n = 3
MEASURED METRIC: Kd (µM)
Response body: numeric value in µM, unit text excluded.

[ask] Field request: Kd | item: ATCTACGAATTCATCAGGGCTAAAGAGTGCAGAGTTACTTAG [AptaMIP-8 oligo]
[reply] 4.17
